Assay: AUC (0 to infinity) in BALB/cAnNCrlCr mouse at 2 mg/kg, po administered as single dose
Format: ADME, organism-based
Set-up: dose 2 mg/kg, route po
Conditions: in vivo
readout type: AUC(0-inf) (ng·h/mL)
Give bare numbers, in ng·h/mL.

`N/C(=N\S(=O)(=O)c1ccccc1)NCc1cc(-c2ccc(Cl)cc2)n(-c2ccc(Cl)cc2)n1` has a reported AUC(0-inf) of 4450

====

Experiment: AUC (0 to infinity) in BALB/cAnNCrlCr mouse at 1 mg/kg, iv administered as single dose
Assay type: ADME, organism-based
Parameters: dose 1 mg/kg, route iv
Conditions: in vivo
readout type: AUC(0-inf) (ng·h/mL)
Numbers only, in ng·h/mL.

# molecule `N/C(=N\S(=O)(=O)c1ccccc1)NCc1cc(-c2ccc(Cl)cc2)n(-c2ccc(Cl)cc2)n1` ; its AUC(0-inf) = 5570

====

For each entry below, report its pIC50 value.
Biological target: Mucosa-associated lymphoid tissue lymphoma translocation protein 1 (Homo sapiens)
Sequence (Q9UDY8 whole entry): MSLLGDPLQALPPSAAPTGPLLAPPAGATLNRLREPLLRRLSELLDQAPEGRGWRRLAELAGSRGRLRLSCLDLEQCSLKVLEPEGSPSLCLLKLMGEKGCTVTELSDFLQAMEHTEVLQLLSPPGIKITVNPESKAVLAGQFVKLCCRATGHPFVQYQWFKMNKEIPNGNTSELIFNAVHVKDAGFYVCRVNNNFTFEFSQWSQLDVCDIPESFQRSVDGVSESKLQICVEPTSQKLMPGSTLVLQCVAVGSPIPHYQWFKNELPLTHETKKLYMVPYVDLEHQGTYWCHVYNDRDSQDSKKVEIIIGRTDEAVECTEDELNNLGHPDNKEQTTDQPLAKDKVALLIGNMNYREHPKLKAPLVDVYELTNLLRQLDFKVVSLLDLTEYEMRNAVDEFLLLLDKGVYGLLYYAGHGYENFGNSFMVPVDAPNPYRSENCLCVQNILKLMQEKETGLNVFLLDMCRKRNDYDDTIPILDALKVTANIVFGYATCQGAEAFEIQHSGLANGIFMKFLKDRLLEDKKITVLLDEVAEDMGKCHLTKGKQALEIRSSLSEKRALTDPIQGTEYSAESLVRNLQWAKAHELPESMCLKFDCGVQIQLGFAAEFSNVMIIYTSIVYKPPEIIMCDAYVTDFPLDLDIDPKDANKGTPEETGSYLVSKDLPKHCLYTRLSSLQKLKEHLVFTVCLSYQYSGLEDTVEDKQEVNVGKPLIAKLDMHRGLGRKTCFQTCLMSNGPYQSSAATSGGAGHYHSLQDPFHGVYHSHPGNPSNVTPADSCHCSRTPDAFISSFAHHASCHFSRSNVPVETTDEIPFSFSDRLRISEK
One number for each entry, as −log10 of the molar value.

1) N/C(=N\S(=O)(=O)c1ccccc1)NCc1cc(-c2ccc(Cl)cc2)n(-c2ccc(Cl)cc2)n1 ... 7.03
2) CN(C)[C@@H](CO)CNC(=O)c1cc(-c2ccc(Cl)cc2)n(-c2ccc(Cl)cc2)n1 ... 6.16
3) CN(C)[C@@H](CO)C(=O)NCc1cc(-c2ccc(Cl)cc2)n(-c2ccc(Cl)cc2)n1 ... 5.40
4) CS(=O)(=O)/N=C(\NCc1cccc(Cl)c1)NCc1cc(-c2ccc(Cl)cc2)n(-c2ccc(Cl)cc2)n1 ... 7.70
5) COc1cccc(S(=O)(=O)/N=C(\N)NCc2cc(-c3ccc(Cl)cc3)n(-c3ccc(Cl)cc3)n2)c1 ... 7.22
6) NC(=O)NCc1cc(-c2ccc(Cl)cc2)n(-c2ccc(Cl)cc2)n1 ... 5.84

List the reported pIC50 of each molecule below.
1. CCN/C(=N\S(C)(=O)=O)NCc1cc(-c2ccc(Cl)cc2)n(-c2ccc(Cl)cc2)n1
2. CS(=O)(=O)/N=C(/NCc1cc(-c2ccc(Cl)cc2)n(-c2ccc(Cl)cc2)n1)N[C@H](CO)c1ccccc1

(A)
1. 6.07
2. 7.35

====

For each entry below, report its IC50 value.
Biological target: Mucosa-associated lymphoid tissue lymphoma translocation protein 1 (Homo sapiens, UniProt Q9UDY8)
Sequence (Q9UDY8 whole entry): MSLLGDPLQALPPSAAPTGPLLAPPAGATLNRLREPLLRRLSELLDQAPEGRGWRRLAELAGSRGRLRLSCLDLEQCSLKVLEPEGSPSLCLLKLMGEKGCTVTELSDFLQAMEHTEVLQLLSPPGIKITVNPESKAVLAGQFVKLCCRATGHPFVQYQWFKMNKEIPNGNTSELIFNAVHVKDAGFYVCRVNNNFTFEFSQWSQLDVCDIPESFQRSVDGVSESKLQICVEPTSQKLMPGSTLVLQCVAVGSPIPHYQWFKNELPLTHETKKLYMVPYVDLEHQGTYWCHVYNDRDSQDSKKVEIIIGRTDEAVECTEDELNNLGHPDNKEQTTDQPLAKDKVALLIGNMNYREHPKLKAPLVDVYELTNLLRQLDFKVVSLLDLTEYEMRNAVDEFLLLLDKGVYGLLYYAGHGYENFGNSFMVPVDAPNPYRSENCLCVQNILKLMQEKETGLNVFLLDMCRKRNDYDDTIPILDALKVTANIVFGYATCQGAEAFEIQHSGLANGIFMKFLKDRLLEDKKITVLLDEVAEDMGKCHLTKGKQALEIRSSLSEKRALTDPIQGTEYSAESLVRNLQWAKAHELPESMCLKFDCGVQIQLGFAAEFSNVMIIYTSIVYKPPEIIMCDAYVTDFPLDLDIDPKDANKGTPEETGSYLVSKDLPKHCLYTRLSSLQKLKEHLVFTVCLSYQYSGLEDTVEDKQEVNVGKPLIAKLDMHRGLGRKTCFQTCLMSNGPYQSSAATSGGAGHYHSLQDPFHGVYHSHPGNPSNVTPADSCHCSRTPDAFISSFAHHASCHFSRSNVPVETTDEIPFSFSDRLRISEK
Numbers only, in nM.

# count of solved cases: 4
1. N/C(=N\S(=O)(=O)C1CCCCC1)NCc1cc(-c2ccc(Cl)cc2)n(-c2ccc(Cl)cc2)n1 ... 762
2. NC(C(=O)NCc1cc(-c2ccc(Cl)cc2)n(-c2ccc(Cl)cc2)n1)c1ccccn1 (centres undefined) ... 227
3. CS(=O)(=O)NCc1cc(-c2ccc(Cl)cc2)n(-c2ccc(Cl)cc2)n1 ... 2190
4. CS(=O)(=O)N[C@H](C(=O)NCc1cc(-c2ccc(Cl)cc2)n(-c2ccc(Cl)cc2)n1)c1ccccc1 ... 60

For the 4 molecules below, give their IC50 values.
1. CC(=O)N[C@H](C(=O)NCc1cc(-c2ccc(Cl)cc2)n(-c2ccc(Cl)cc2)n1)c1ccccc1
2. CC(=O)NC(C(=O)NCc1cc(-c2ccc(Cl)cc2)n(-c2ccc(Cl)cc2)n1)c1ccccn1 (centres undefined)
3. CN(C)CC(=O)NCc1cc(-c2ccc(Cl)cc2)n(-c2ccc(Cl)cc2)n1
4. O=C(Cc1ccccc1)NCc1cc(-c2ccc(Cl)cc2)n(-c2ccc(Cl)cc2)n1

(A)
42
56
3880
188

====

Assay: Apparent permeability of the compound in human Caco-2 cells
Format: ADME, cell-based
readout type: Papp

For this compound ( `N/C(=N\S(=O)(=O)c1ccccc1)NCc1cc(-c2ccc(Cl)cc2)n(-c2ccc(Cl)cc2)n1` ), measured Papp is 3 ×10⁻⁶ cm/s

====

Exercise: state measured pIC50 for each of the compounds provided.
Target: Mucosa-associated lymphoid tissue lymphoma translocation protein 1 (Homo sapiens, UniProt Q9UDY8)
Test: Inhibition of MALT1 (unknown origin)
Give bare numbers, as −log10 of the molar value.

Worked examples follow.
1. N/C(=N\S(=O)(=O)Cc1ccccc1)NCc1cc(-c2ccc(Cl)cc2)n(-c2ccc(Cl)cc2)n1 ... 6.11
2. CN(C)[C@H](C(=O)NCc1cc(-c2ccc(Cl)cc2)n(-c2ccc(Cl)cc2)n1)c1ccccc1 ... 7.28
3. CS(=O)(=O)/N=C(\NCc1ccccn1)NCc1cc(-c2ccc(Cl)cc2)n(-c2ccc(Cl)cc2)n1 ... 7.47

Now for a further compound.
Documented pIC50 of `N/C(=N\S(=O)(=O)C1CC1)NCc1cc(-c2ccc(Cl)cc2)n(-c2ccc(Cl)cc2)n1` : 6.59

====

Assay: Cmax in BALB/cAnNCrlCr mouse at 2 mg/kg, po administered as single dose
Type: ADME, organism-based
Design: dose 2 mg/kg, route po
Conditions: in vivo
readout type: Cmax (ng/mL)
Answers are plain numbers, in ng/mL.

Cmax in this record for `N/C(=N\S(=O)(=O)c1ccccc1)NCc1cc(-c2ccc(Cl)cc2)n(-c2ccc(Cl)cc2)n1` : 560

====

Target: Mucosa-associated lymphoid tissue lymphoma translocation protein 1 (Homo sapiens, UniProt Q9UDY8)
Assignment: determine reported IC50 for the given compounds.
Give bare numbers, in nM.

1) CC(=O)NCc1cc(-c2ccc(Cl)cc2)n(-c2ccc(Cl)cc2)n1 ... 1770
2) CC(=O)/N=C(\N)NCc1cc(-c2ccc(Cl)cc2)n(-c2ccc(Cl)cc2)n1 ... 1540
3) N/C(=N\S(=O)(=O)c1cccs1)NCc1cc(-c2ccc(Cl)cc2)n(-c2ccc(Cl)cc2)n1 ... 249
4) CS(=O)(=O)/N=C(\NCc1ccccc1)NCc1cc(-c2ccc(Cl)cc2)n(-c2ccc(Cl)cc2)n1 ... 31

Note: attention shifts to another entry.
Form: compound = `N[C@@H](Cc1ccccc1)C(=O)NCc1cc(-c2ccc(Cl)cc2)n(-c2ccc(Cl)cc2)n1` ; IC50 = 280
